Each entry below carries its reported IC50.
- TARGET_ENTITY: human recombinant PARG (Homo sapiens (Human), UniProt Q86W56)
- Sequence (Q86W56 whole entry): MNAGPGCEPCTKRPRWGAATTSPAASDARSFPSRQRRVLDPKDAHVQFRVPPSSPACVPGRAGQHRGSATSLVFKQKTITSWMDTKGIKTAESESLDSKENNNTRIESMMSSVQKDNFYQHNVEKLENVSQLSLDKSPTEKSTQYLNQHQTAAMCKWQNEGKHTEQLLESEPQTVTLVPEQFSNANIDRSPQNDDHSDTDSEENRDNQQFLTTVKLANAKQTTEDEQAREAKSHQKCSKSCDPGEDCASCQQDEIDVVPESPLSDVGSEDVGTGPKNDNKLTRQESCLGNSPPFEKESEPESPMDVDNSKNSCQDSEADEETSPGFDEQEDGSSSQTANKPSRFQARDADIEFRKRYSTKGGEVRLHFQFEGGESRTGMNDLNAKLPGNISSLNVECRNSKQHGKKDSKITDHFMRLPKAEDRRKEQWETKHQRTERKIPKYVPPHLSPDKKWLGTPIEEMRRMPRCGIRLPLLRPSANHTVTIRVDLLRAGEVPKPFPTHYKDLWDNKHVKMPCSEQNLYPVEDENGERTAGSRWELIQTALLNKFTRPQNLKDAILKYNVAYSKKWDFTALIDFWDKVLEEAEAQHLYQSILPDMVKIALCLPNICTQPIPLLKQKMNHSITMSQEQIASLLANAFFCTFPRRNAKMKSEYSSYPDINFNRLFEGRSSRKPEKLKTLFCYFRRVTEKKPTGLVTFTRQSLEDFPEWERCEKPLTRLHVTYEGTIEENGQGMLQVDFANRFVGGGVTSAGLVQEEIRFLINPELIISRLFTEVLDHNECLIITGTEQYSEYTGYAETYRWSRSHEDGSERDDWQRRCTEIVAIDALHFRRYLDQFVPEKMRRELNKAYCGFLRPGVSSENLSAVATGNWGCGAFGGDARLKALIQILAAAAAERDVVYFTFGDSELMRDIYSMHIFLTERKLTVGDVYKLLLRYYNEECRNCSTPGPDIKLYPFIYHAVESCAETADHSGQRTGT
- ASSAY_EXPLANATION: PARG Activity Assay
- CONDITION_NOTES: recombinant human PARG 0.0185 nM, 1 hour pre-incubation, poly (ADP-ribose) substrate-coated plate, Abs 450
Report the value in nM with no unit label.

Here's what some known entries look like.
- Cc1ncc(Cn2c(=O)c3cc(S(=O)(=O)NC4(C)CC4)sc3n(Cc3nc4c(o3)CCCC4)c2=O)s1 [Ex 20]: 110
- CC(=O)N1CCC(Cn2c(=O)n(Cc3cnn(C)c3)c(=O)c3cc(S(=O)(=O)NC4(C)CC4)sc32)CC1 [Ex 86]: 160

Task: Lookup: IC50 / human recombinant PARG (Homo sapiens (Human), UniProt Q86W56) / Cn1cc(Cn2c(=O)c3cc(S(=O)(=O)NC4(C)CC4)sc3n(Cc3ccc(Cl)c(F)c3)c2=O)cn1 [Ex 47]
Output: 130

Task: How about this compound: Cn1cc(Cn2c(=O)c3cc(S(=O)(=O)NC4(C)CC4)sc3n(Cc3cnc4[nH]ccc4c3)c2=O)cn1 [Ex 37]
Output: 9

----------
Each entry below carries its reported IC50.
- TARGET_ENTITY: human recombinant PARG (Homo sapiens (Human))
- ASSAY_EXPLANATION: PARG Activity Assay
- CONDITION_NOTES: recombinant human PARG 0.0185 nM, 1 hour pre-incubation, poly (ADP-ribose) substrate-coated plate, Abs 450
Report the value in nM with no unit label.

Task: Fill in the blank: the reported IC50 of COc1cc(Cn2c(=O)n(Cc3cnn(C)c3)c(=O)c3cc(S(=O)(=O)NC4(C)CC4)sc32)ccn1 [Ex 43] is ____.
Output: 29

Task: How about this compound: CNc1ccc(Cn2c(=O)n(Cc3cnn(C)c3)c(=O)c3cc(S(=O)(=O)NC4(C)CC4)sc32)cc1F [Ex 73]
Output: 17

Task: How about this compound: Cn1cc(Cn2c(=O)c3cc(S(=O)(=O)NC4(C)CC4)sc3n(Cc3cnn(CC(F)F)c3)c2=O)cn1 [Ex 56]
Output: 36

Task: How about this compound: COCCN(C)c1ccc(Cn2c(=O)n(Cc3cnn(C)c3)c(=O)c3cc(S(=O)(=O)NC4(C)CC4)sc32)cc1F [Ex 75]
Output: 130

----------
Each entry below carries its reported pIC50.
- TARGET_ENTITY: human recombinant PARG (Homo sapiens (Human), UniProt Q86W56)
- ASSAY_EXPLANATION: PARG Activity Assay
- CONDITION_NOTES: recombinant human PARG 0.0185 nM, 1 hour pre-incubation, poly (ADP-ribose) substrate-coated plate, Abs 450
Remember the convention: pIC50 equals -log10 of concentration in molar.

• COCCC(=O)N1CCC(n2c(=O)n(Cc3cnn(C)c3)c(=O)c3cc(S(=O)(=O)NC4(C)CC4)sc32)CC1 = 6.57
• COc1cncc(Cn2c(=O)n(Cc3cnn(C)c3)c(=O)c3cc(S(=O)(=O)NC4(C)CC4)sc32)c1 = 7.40
• Cn1cc(Cn2c(=O)c3cc(S(=O)(=O)NC4(C)CC4)sc3n(Cc3ccc4c(c3)C(=O)NC4)c2=O)cn1 = 7.96
• Cc1ncc(Cn2c(=O)c3cc(S(=O)(=O)NC4(C)CC4)sc3n(CCCN)c2=O)s1 = 5.97

Task: Fill in the blank: the reported pIC50 of Cc1ncc(Cn2c(=O)c3cc(S(=O)(=O)NC4CC4)sc3n(CC3CC3)c2=O)s1 is ____.
Output: 5.65

----------
- TARGET_ENTITY: human recombinant PARG (Homo sapiens (Human), UniProt Q86W56)
- ASSAY_EXPLANATION: PARG Activity Assay
- CONDITION_NOTES: recombinant human PARG 0.0185 nM, 1 hour pre-incubation, poly (ADP-ribose) substrate-coated plate, Abs 450
Field 'label' (enum: rule met / rule not met). Set to rule met when IC50 is strictly under 50 nM; else rule not met.

Look over these answered cases.
• Cn1cc(Cn2c(=O)c3cc(S(=O)(=O)NC4(C)CC4)sc3n(Cc3ccc(F)c(C(=O)N4CCN(C(=O)C5CC5)CC4)c3)c2=O)cn1 = rule not met
• Cn1cc(Cn2c(=O)c3cc(S(=O)(=O)NC4(C)CC4)sc3n(Cc3ccc(N4CC[C@H](O)C4)nc3)c2=O)cn1 = rule not met
• Cn1cc(Cn2c(=O)c3cc(S(=O)(=O)NC4(C)CC4)sc3n(CC3CC3)c2=O)cn1 = rule not met
• Cn1cc(Cn2c(=O)c3cc(S(=O)(=O)NC4(C)CC4)sc3n(CCc3ccccc3)c2=O)cn1 = rule not met

Task: Hi there! Is IC50 for CN1CCC(Cn2c(=O)n(Cc3cnn(C)c3)c(=O)c3cc(S(=O)(=O)NC4(C)CC4)sc32)CC1=O (stereo not drawn) below 50 nM, do you know?
Output: rule not met

Task: How about this compound: Cc1ncc(Cn2c(=O)c3cc(S(=O)(=O)NC4(C)CC4)sc3n(Cc3nc4ccccc4[nH]3)c2=O)s1
Output: rule not met

Task: How about this compound: Cn1cc(Cn2c(=O)c3cc(S(=O)(=O)NC4(C)CC4)sc3n(Cc3ccc4c(n3)COC4)c2=O)cn1
Output: rule met

Task: How about this compound: Cn1cc(Cn2c(=O)c3cc(S(=O)(=O)NC4(C)CC4)sc3n(Cc3ccc(C#N)cc3)c2=O)cn1
Output: rule not met

Task: How about this compound: Cc1ncc(Cn2c(=O)c3cc(S(=O)(=O)NC4(C)CC4)sc3n(CC3CCOCC3)c2=O)s1
Output: rule not met

Task: How about this compound: CN(CCO)c1ccc(Cn2c(=O)n(Cc3cnn(C)c3)c(=O)c3cc(S(=O)(=O)NC4(C)CC4)sc32)cc1F
Output: rule not met

Task: How about this compound: Cn1cc(Cn2c(=O)c3cc(S(=O)(=O)NC4(C)CC4)sc3n(Cc3cncc(CO)c3)c2=O)cn1
Output: rule met

Task: How about this compound: CN1Cc2ccc(Cn3c(=O)n(Cc4cnn(C)c4)c(=O)c4cc(S(=O)(=O)NC5(C)CC5)sc43)cc2C1=O
Output: rule met

Task: How about this compound: Cn1cc(Cn2c(=O)c3cc(S(=O)(=O)NC4(C)CC4)sc3n(Cc3ccc4c(c3)CNC4)c2=O)cn1
Output: rule met

Task: How about this compound: Cc1cc(Cn2c(=O)n(Cc3cnc(C)s3)c(=O)c3cc(S(=O)(=O)NC4(C)CC4)sc32)n(C)n1
Output: rule met

Task: How about this compound: Cn1cc(Cn2c(=O)c3cc(S(=O)(=O)NC4(C)CC4)sc3n(Cc3ccc4c(c3)CCO4)c2=O)cn1
Output: rule met

----------
- TARGET_ENTITY: human recombinant PARG (Homo sapiens (Human), UniProt Q86W56)
- ASSAY_EXPLANATION: PARG Activity Assay
- CONDITION_NOTES: recombinant human PARG 0.0185 nM, 1 hour pre-incubation, poly (ADP-ribose) substrate-coated plate, Abs 450
MEASURED_QUANTITY: pIC50
Remember the convention: pIC50 equals -log10 of concentration in molar.

• CC(c1ccc2c(c1)COC2)n1c(=O)n(Cc2cnn(C)c2)c(=O)c2cc(S(=O)(=O)NC3(C)CC3)sc21 (stereo not shown) = 6.85
• Cn1cc(Cn2c(=O)c3cc(S(=O)(=O)NC4(C)CC4)sc3n(Cc3ccc4[nH]c(=O)oc4c3)c2=O)cn1 = 7.68
• Cc1ncc(Cn2c(=O)c3cc(S(=O)(=O)NC4(C)CC4)sc3n(Cc3ccc4cc[nH]c4c3)c2=O)s1 = 6.80
• CNc1cc(Cn2c(=O)n(Cc3cnn(C)c3)c(=O)c3cc(S(=O)(=O)NC4(C)CC4)sc32)c(F)cc1F = 7.14
• Cn1cc(Cn2c(=O)c3cc(S(=O)(=O)NC4(C)CC4)sc3n(Cc3ccc(F)cc3)c2=O)cn1 = 8.04
• CN1CCc2ccc(Cn3c(=O)n(Cc4cnn(C)c4)c(=O)c4cc(S(=O)(=O)NC5(C)CC5)sc43)cc2C1=O = 6.92

Task: Fill in the blank: the reported pIC50 of Cn1cc(Cn2c(=O)c3cc(S(=O)(=O)NC4(C)CC4)sc3n(Cc3ccc4c(c3)NC(=O)C4)c2=O)cn1 is ____.
Output: 8.20

----------
Each entry below carries its reported pIC50.
- TARGET_ENTITY: human recombinant PARG (Homo sapiens (Human))
- ASSAY_EXPLANATION: PARG Activity Assay
- CONDITION_NOTES: recombinant human PARG 0.0185 nM, 1 hour pre-incubation, poly (ADP-ribose) substrate-coated plate, Abs 450
Remember the convention: pIC50 equals -log10 of concentration in molar.

Here's what some known entries look like.
- COc1c(F)cc(Cn2c(=O)n(Cc3cnn(C)c3)c(=O)c3cc(S(=O)(=O)NC4(C)CC4)sc32)cc1F: 7.54
- COCCNc1ncc(Cn2c(=O)n(Cc3cnn(C)c3)c(=O)c3cc(S(=O)(=O)NC4(C)CC4)sc32)cn1: 7.15

Task: Fill in the blank: the reported pIC50 of Cn1cc(Cn2c(=O)c3cc(S(=O)(=O)NC4(C)CC4)sc3n(Cc3ccc(OC(F)F)cc3)c2=O)cn1 is ____.
Output: 7.48

Task: How about this compound: CO[C@H]1CCN(c2ccc(Cn3c(=O)n(Cc4cnn(C)c4)c(=O)c4cc(S(=O)(=O)NC5(C)CC5)sc43)cn2)C1
Output: 6.70

Task: How about this compound: Cc1ncc(Cn2c(=O)c3cc(S(=O)(=O)NC4(C)CC4)sc3n(Cc3cnc4[nH]ccc4c3)c2=O)s1
Output: 7.80

Task: How about this compound: Cn1cc(Cn2c(=O)c3cc(S(=O)(=O)NC4(C)CC4)sc3n(Cc3cnc(NCCO)nc3)c2=O)cn1
Output: 6.38

Task: How about this compound: COc1ccc(Cn2c(=O)n(Cc3cnn(C)c3)c(=O)c3cc(S(=O)(=O)NC4(C)CC4)sc32)cn1
Output: 7.32
